system: VDR homodimer (NR concentration 270 nM); experiment: PBM binding z-score (relative to random genomic background probes); higher = stronger binding; sequences stand for … in GC…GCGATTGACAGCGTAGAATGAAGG

- BIOSEQUENCE: "GTTACAGGGTCAAGGCCAGAGTACGCGTATTGAT"
  PBM binding z-score: 2.86
- BIOSEQUENCE: "CGTTCAAGGTCAAAGGTCAGTGAAGAGATGACGG"
  PBM binding z-score: 3.81
- BIOSEQUENCE: "TCTCGGAGGACACCAAAGGTCAGAGCTCGACATC"
  PBM binding z-score: 1.11
- BIOSEQUENCE: "CAAACCAGGTCACAGAGGTCAAAGTCCGTGCGTA"
  PBM binding z-score: 8.47
- BIOSEQUENCE: "CGTCCGAGGTCATAGGAGGTCAGTGAAGACAGAT"
  PBM binding z-score: 5.17
- BIOSEQUENCE: "AGAATGAGGTCATTAAGATCAGGGAATTGCGGTC"
  PBM binding z-score: 4.67
- BIOSEQUENCE: "CGAACTAGGTCGAGGACAGTGAATCTCCGCACGC"
  PBM binding z-score: 0.0594
- BIOSEQUENCE: "CTCGAAAGGTCATGCTCAGGTGAGTATACCAAAC"
  PBM binding z-score: 2.44
- BIOSEQUENCE: "ATATGTAGTTTATCGGGTCATTCAGTTTGCGCAT"
  PBM binding z-score: 4.13
- BIOSEQUENCE: "CCTACTGGGCCAAAAAGGTCATTGATGCCGATAA"
  PBM binding z-score: 2.01
- BIOSEQUENCE: "ATATGTAGGTTAGGGTCAGTCAGAAAGTAGGGAA"
  PBM binding z-score: 1.79
- BIOSEQUENCE: "CAAAATAGGTCACAGAGGTCAAAGTCCGTGCGTA"
  PBM binding z-score: 6.13
- BIOSEQUENCE: "CCTACTCGGCCAAAAAGGTCATTGATGCCGATAA"
  PBM binding z-score: 2.91
- BIOSEQUENCE: "CTATGTGGGTTAAGGGGGTCATTCAGTTTGAAAG"
  PBM binding z-score: 6.5
- BIOSEQUENCE: "ATCGAAAGGTCAACGAGGTGAGTATACACCGTTT"
  PBM binding z-score: 3.29
- BIOSEQUENCE: "ACTTACGGGTCAACGAGGTCATAGCACGCGTATA"
  PBM binding z-score: 7.5
- BIOSEQUENCE: "AGAATGAGGTCAAGATCAGGGAAACAGAATACAT"
  PBM binding z-score: 3.31
- BIOSEQUENCE: "TAGCCTAAGTCATGCGGGCCAGTATAGTGTCGGC"
  PBM binding z-score: -1.04
- BIOSEQUENCE: "CTATGTAGGTTAGGGGGGTCATTCAGTTTGAAAG"
  PBM binding z-score: 6.97
- BIOSEQUENCE: "CGTCAAAGTTCAACTAAGGTTACGTAAAGCACGC"
  PBM binding z-score: 4.89
- BIOSEQUENCE: "CAAACCAGGTCAAGAGGTCAAAGTCCGCTTCCCG"
  PBM binding z-score: 5.13
- BIOSEQUENCE: "CAAACAAGGTCACGAAAGGTCAAAGTCGAATGAC"
  PBM binding z-score: 5.74
- BIOSEQUENCE: "CGTCCAAGGTCAAGGTCAATGAAAGAGACTCGAA"
  PBM binding z-score: 3.28
- BIOSEQUENCE: "TTACCAAGGTCAAAGGTCGTTGATGCACGCCTTG"
  PBM binding z-score: 4.36
- BIOSEQUENCE: "CCTCGGAGGACAACAGGAGGTCATAGCTGCCAGA"
  PBM binding z-score: 2.44
- BIOSEQUENCE: "TAGCCTAGGTCATACAGGGGCCAGTATAGAAAGC"
  PBM binding z-score: 0.824
- BIOSEQUENCE: "ATATGTAGGTTAACTGGGGTCATTCAGACTAGGC"
  PBM binding z-score: 5.41
- BIOSEQUENCE: "TAGCCGAGGTCATTCAGGGGCCAGTATAGAAAGC"
  PBM binding z-score: 5.34
- BIOSEQUENCE: "CGAACTAGGTCAAGGGACAGTGAAAGGCGACGTA"
  PBM binding z-score: 0.0374
- BIOSEQUENCE: "CAAACTAGGTCACGAGAGGTCAAAGTCGAATGAC"
  PBM binding z-score: 5.09
- BIOSEQUENCE: "TTACCAAGGTGAACGGTCGTTGATGCACGCCTTG"
  PBM binding z-score: -0.356
- BIOSEQUENCE: "AGTCAAAGTTCATCTAGGTCACGTAAGATATGCT"
  PBM binding z-score: 7.84
- BIOSEQUENCE: "GGAACGAGGTCATTCGAGTTGATAGCATGGCGAT"
  PBM binding z-score: 6.31
- BIOSEQUENCE: "CATACAGGGTCGGCTAGGCCAGAGTAGGGACGGC"
  PBM binding z-score: 0.745
- BIOSEQUENCE: "CTATGTAGGTTAAGGGAGTCATTCAGTTTGAAAG"
  PBM binding z-score: 0.283
- BIOSEQUENCE: "TCTAGTTGGTCAAAGGTCACGCACTCGAAATGCG"
  PBM binding z-score: 3.12
- BIOSEQUENCE: "GATACAGGGTCAAGGTCAGAGTACGCGTATTGAT"
  PBM binding z-score: 4.39
- BIOSEQUENCE: "ACTCGGTGGACAAAGGTCAGAGCTACGCCAGTGA"
  PBM binding z-score: 0.332
- BIOSEQUENCE: "CGTCCAAGGTCAATGCTAGATCAGTGAAAGCATT"
  PBM binding z-score: 2.34
- BIOSEQUENCE: "TATACAGGGTCAAAGGCCAAAGTACGAATGTCGA"
  PBM binding z-score: 3.3
- BIOSEQUENCE: "CGAACGAGGTCATCCAGGACAGTGAATACATTGA"
  PBM binding z-score: 6.44
- BIOSEQUENCE: "TTACCAAGGTCAAGGTCGTTGATCCCTCTGTAGA"
  PBM binding z-score: 4.9
- BIOSEQUENCE: "AGAATGAGGTCACCAAAGATCAGGGAAACGCTTG"
  PBM binding z-score: 3.69
- BIOSEQUENCE: "GATACAGGGTCGGCTAGAGGCCAGAGTATGGAAA"
  PBM binding z-score: 0.35
- BIOSEQUENCE: "CCGAGTAGGTTACTAGGGGGCATTCAGTGCGAAT"
  PBM binding z-score: 3.59
- BIOSEQUENCE: "CAAACAAGGTCACCGGAAGGTCAAAGTCCGCATG"
  PBM binding z-score: 5.94
- BIOSEQUENCE: "ATCGAAAGGTCGAAGGTGAGCATACCCACCCGAA"
  PBM binding z-score: 0.602
- BIOSEQUENCE: "GCTTACGGGTCCAAGGTTATAGCATGAATAGAAT"
  PBM binding z-score: 1.97
- BIOSEQUENCE: "CAAACGAGGTCACAGAGGTCAAAGTCCGTGCGTA"
  PBM binding z-score: 10.5
- BIOSEQUENCE: "ATCGAAAGGTCGAAGGTGCGTATACCCACCCGAA"
  PBM binding z-score: 0.858
- BIOSEQUENCE: "CGTCAAAGGTCAACTAAGGTAACGTAAAGCACGC"
  PBM binding z-score: 2.23

----------
# Lookup of reported PBM binding z-score keyed by entry
test system: PPARg:RXRa (NR concentration 180 nM, RXRa partner concentration 90 nM); experiment: PBM binding z-score (relative to random genomic background probes); higher = stronger binding; sequences stand for … in GC…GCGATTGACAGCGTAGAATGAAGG
RECORDED_METRIC: PBM binding z-score

- BIOSEQUENCE: "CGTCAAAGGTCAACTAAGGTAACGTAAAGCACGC"
  TEST_VALUE: 9.18
- BIOSEQUENCE: "CCTACTGGGCCAAAGGTGATTGATTCCAATGCTC"
  TEST_VALUE: 8.87
- BIOSEQUENCE: "ATATGTAGGATAGCTGGGGTCATTCAGACTAGGC"
  TEST_VALUE: 2.42
- BIOSEQUENCE: "TAGCCTAGGTCATTCAGGGGCAAGTATAGAAAGC"
  TEST_VALUE: 2.47
- BIOSEQUENCE: "AGAATGAGGTTAAACGTAGATCAGGGAAGAAAGT"
  TEST_VALUE: 4
- BIOSEQUENCE: "TCTTGTAGATCAACAGGAGGTTAATAAAGATCGA"
  TEST_VALUE: 0.6
- BIOSEQUENCE: "CAAACGAGGTCAAGAGGTCAAAGTCCGCTTCCCG"
  TEST_VALUE: 9.67
- BIOSEQUENCE: "CCTAGTTGTTCAGGAGGTCACACACCGGATATGA"
  TEST_VALUE: 2.04
- BIOSEQUENCE: "AAAACAGGGTCATCGTAGGCCAGAGTACGCACAG"
  TEST_VALUE: 7.65
- BIOSEQUENCE: "AGTCAAAGTTCAGGACGACGTAACGTAAAGCACG"
  TEST_VALUE: 4.42
- BIOSEQUENCE: "CGTCCAAAGTCAAAGGTCAGTGAAGAGATGACGG"
  TEST_VALUE: 5.73
- BIOSEQUENCE: "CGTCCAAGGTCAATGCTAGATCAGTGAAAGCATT"
  TEST_VALUE: 3.65

Sourced from the supplement of paper PMC6555819
